Where these numbers come from: patent US10233186B2

Target: human ALK2 R206H (Homo sapiens, UniProt Q04771, R206H)
Construct: expressed in transfected cells; host or cells: HEK293 (ATCC CRL1573), lentivirus transduction, blasticidin selection
Sequence (Q04771 21-509 R206H): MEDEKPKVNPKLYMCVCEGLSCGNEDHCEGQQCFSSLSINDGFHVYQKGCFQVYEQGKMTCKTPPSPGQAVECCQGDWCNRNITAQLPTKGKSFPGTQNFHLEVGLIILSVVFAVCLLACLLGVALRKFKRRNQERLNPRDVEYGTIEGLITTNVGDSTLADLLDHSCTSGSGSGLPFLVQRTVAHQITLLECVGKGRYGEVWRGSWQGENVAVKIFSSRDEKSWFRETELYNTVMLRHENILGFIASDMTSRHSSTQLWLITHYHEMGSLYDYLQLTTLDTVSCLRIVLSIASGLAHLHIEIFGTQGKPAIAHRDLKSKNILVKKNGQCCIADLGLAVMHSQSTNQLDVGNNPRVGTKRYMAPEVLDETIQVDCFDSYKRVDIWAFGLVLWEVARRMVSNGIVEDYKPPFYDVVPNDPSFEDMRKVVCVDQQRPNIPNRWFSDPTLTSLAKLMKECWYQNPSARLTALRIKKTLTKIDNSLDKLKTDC
Experiment: Cell-based ALK2-R206H cell activity assay (Smad1-Ser463/Ser465 phosphorylation by AlphaLISA in HEK293-ALK2-R206H cells)
Conditions: read-out: Cell Line (Cell Assay IC50)
Method: A HEK293 (ATCC, Cat^# CRL1573) based stable cell line expressing human ALK2 R206H cDNA (synthesized by GeneScript, Piscataway, N.J.) and a FLAG tag at the C-terminus was generated by lentivirus transduction and subsequent blasticidin (Life Technologies, Cat^#-A1113902) selection at 10 μg/ml for >2 wks. This cell line was named HEK293-ALK2-R206H. Test compounds were first diluted to 4 mM or 0.4 mM and then serially diluted 3-fold into 10 different concentrations using DMSO. […]
Each entry below carries its recorded IC50.

Please review the entries below; each comes with its answer.
COC1(c2ccc(-c3cc4c(N5CCN(C(=O)OC6COC6)CC5)ccnn4c3)cc2)CCN([C@@H](C)COC(F)F)CC1    < 100 nM
C[C@]1(c2ccc(-c3cc4c(N5CCN(C(=O)C6CC6)CC5)ccnn4c3)cc2)CCCN1    < 100 nM
COC1(c2cnc(-c3cc4c(N5CCN(C(=O)C6CC6)CC5)ccnn4c3)c(F)c2)CCN(C(C)C)CC1    100 to 500 nM
COC1(c2ccc(-c3cc4c(N5CCN(C(=O)OC6COC6)CC5)ccnn4c3)c(F)c2)CCN(C(C)C)CC1    < 100 nM
CCOC1(c2ccc(-c3cc4c(N5CCN(C(=O)OC6COC6)CC5)ccnn4c3)nc2)CCN(C2COC2)CC1    < 100 nM

Name the recorded IC50 for "CCOC(=O)N1CCN(c2ccnn3cc(-c4ccc(C5(OC)CCNCC5)cc4)cc23)CC1" .
< 100 nM

Would you mind telling me what IC50 value was observed for "CC(C)N1CCC(c2ccc(-c3cc4c(N5CCN(C(=O)O[C@H]6CCOC6)CC5)ccnn4c3)cc2)CC1" ?
< 100 nM

Please report the recorded IC50 for "CCN1CCN(c2ccc(-c3cc4c(N5CCN(C(=O)N6CC(C#N)C6)CC5)ccnn4c3)cc2)CC1" .
< 100 nM
